tested-target: T1, CD3 epsilon homodimer protein (UniProt P07766 23-126)
T1 construct: also called CD3 (CD3 epsilon)
T1 sequence (P07766 23-126): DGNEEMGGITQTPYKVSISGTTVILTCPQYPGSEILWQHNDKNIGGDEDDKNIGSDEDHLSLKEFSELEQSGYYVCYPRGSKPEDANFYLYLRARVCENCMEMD
protocol-description: SPR Biacore T200, CD3e homodimer on chip, vs unaltered GLS3000 antibody
binders and their reported ratio of amounts bound (Z=Y/X)
Format: numeric value only, no unit, no commentary.

| binder | ratio of amounts bound (Z=Y/X) |
| --- | --- |
| GLS3000 G89M (antibody, name in Kabat numbering, V domains shown, one-arm IgG as m2) VH: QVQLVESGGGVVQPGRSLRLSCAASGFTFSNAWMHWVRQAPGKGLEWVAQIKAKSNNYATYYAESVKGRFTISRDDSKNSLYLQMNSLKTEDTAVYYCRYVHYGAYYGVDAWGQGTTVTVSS VL: DIVMTQSPLSLPVTPGEPASISCRSSQSLVHSNRNTYLHWYQQKPGQAPRLLIYKVSNRFSGVPDRFSGSGSGTDFTLKISRVEAEDVGVYYCMQGTQVPYTFGQGTKLEIK | 0.52 |

Now for another entry.
Entry GLS3000 F55K (antibody, name in Kabat numbering, V domains shown, one-arm IgG as m2) VH: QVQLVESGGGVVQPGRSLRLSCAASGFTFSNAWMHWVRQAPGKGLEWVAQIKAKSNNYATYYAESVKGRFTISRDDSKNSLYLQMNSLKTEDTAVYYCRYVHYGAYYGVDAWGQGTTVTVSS VL: DIVMTQSPLSLPVTPGEPASISCRSSQSLVHSNRNTYLHWYQQKPGQAPRLLIYKVSNRKSGVPDRFSGSGSGTDFTLKISRVEAEDVGVYYCGQGTQVPYTFGQGTKLEIK : reported ratio of amounts bound (Z=Y/X) = ?
1.33
